# Assay target: the molecule itself
# Test: negative-stain TEM; 0.02 mg/ml purified protein on glow-discharged carbon-coated copper grids, 2% uranyl acetate; single-point mutants taken directly after TEV cleavage of the 8×His tag

Protein: hNINJ1 I134F (natural protein, human, UniProt Q92982 1-152, looked up, ninjurin-1 (NINJ1), human, UniProt Q92982, residues 1–152, point mutant; source: E. coli Rosetta2 (DE3), purified (DDM, Ni-NTA, TEV cleavage); not shown: 8×His, N-terminal, cleaved) MDSGTEEYELNGGLPPGTPGSPDASPARWGWRHGPINVNHYASKKSAAESMLDIALLMANASQLKAVVEQGPSFAFYVPLVVLISISLVLQIGVGVLLIFLVKYDLNNPAKHAKLDFLNNLATGLVFIIVVVNFFITAFGVQKPLMDMAPQQ
binding result: binds

Protein: hNINJ1 L121F (natural protein, human, UniProt Q92982 1-152, looked up, ninjurin-1 (NINJ1), human, UniProt Q92982, residues 1–152, point mutant; source: E. coli Rosetta2 (DE3), purified (DDM, Ni-NTA, TEV cleavage); not shown: 8×His, N-terminal, cleaved) MDSGTEEYELNGGLPPGTPGSPDASPARWGWRHGPINVNHYASKKSAAESMLDIALLMANASQLKAVVEQGPSFAFYVPLVVLISISLVLQIGVGVLLIFLVKYDLNNPAKHAKLDFLNNFATGLVFIIVVVNIFITAFGVQKPLMDMAPQQ
binding result: binds
